Molecular target: BTK (Homo sapiens)
Sequence (Q06187 402-655 limits assumed): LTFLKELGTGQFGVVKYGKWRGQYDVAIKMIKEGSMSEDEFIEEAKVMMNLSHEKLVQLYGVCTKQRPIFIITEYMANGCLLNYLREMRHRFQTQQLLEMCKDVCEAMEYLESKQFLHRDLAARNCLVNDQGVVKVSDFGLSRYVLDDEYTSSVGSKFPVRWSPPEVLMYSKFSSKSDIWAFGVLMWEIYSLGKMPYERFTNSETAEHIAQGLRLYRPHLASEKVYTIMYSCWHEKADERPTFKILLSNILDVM
Experiment: biochemical
Conditions: read-out: BTK inhibition (%), 0.75 uM BTK, […] probe 3l, 15 min preincubation
Task for the reader: assign each of the following compounds its reported inhibition at 10 µM.
Give bare numbers, in %.

Below, 5 compounds whose answers are already recorded.
| compound | testedOn | unitText | valueMeasured |
| --- | --- | --- | --- |
| CCc1cc(/C(C)=N/OCc2ccc(C3CCCCC3)c(C(F)(F)F)c2)ccc1CN1CC(C(=O)O)C1 | BTK (Homo sapiens) | % | -62.8 |
| Cc1onc(-c2ccccc2)c1C(=O)N[C@@H]1C(=O)N2[C@@H]1SC(C)(C)[C@@H]2C(=O)O | BTK (Homo sapiens) | % | 21.3 |
| C=C(C)[C@@H]1CC[C@]2(C(=O)O)CC[C@]3(C)[C@H](CC[C@@H]4[C@@]5(C)CCC(=O)C(C)(C)[C@@H]5CC[C@]43C)[C@@H]12 | BTK (Homo sapiens) | % | 66.9 |
| CC12CCC(C1)C(C)(C)C2O (stereo not drawn) | BTK (Homo sapiens) | % | -13.9 |
| O=C1CN(/N=C/C=C/c2ccc([N+](=O)[O-])o2)C(=O)N1 | BTK (Homo sapiens) | % | -7.8 |

Hi! Can you tell me inhibition at 10 µM for each of these compounds?
1. CCn1cc(NC(=S)Nc2cc(Cl)ccc2OC)c(C(N)=O)n1
2. O=S(=O)(NCCSSCCNS(=O)(=O)c1cc(Cl)ccc1Cl)c1cc(Cl)ccc1Cl
3. COc1ccc([C@@H]2CC(=O)c3c(O)cc(O[C@@H]4O[C@H](CO[C@@H]5O[C@@H](C)[C@H](O)[C@@H](O)[C@H]5O)[C@@H](O)[C@H](O)[C@H]4O)cc3O2)cc1
4. C[n+]1cc2c3c(ccc2c2ccc4cc5c(cc4c21)OCO5)OCO3

1. 0
2. 5.4
3. -3.1
4. 75.7
